# merged literature set: pKi with Carbonic anhydrase 14 (Homo sapiens)
# Sequence (Q9ULX7 whole entry): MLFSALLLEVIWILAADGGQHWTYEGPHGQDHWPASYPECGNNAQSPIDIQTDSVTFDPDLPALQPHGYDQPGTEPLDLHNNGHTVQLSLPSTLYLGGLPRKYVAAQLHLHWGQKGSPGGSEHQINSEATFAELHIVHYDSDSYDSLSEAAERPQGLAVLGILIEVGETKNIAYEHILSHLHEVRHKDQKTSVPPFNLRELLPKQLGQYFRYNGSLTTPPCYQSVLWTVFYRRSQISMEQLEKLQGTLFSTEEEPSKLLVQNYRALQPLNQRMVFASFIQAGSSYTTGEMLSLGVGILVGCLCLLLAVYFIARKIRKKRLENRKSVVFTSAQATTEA
Quick note: pKi values are minus log10 of concentrations in mol/L.

As a guide, the following entries are already answered.
smiles repr | reported result
CCOc1ccc2ccc(=O)oc2c1 | 5.33
NCCNc1cccc2ccccc12 | 6.23
CC(=O)OC[C@H]1O[C@@H](NC(=S)NNC(=O)c2ccc(S(N)(=O)=O)cc2)[C@H](OC(C)=O)[C@@H](OC(C)=O)[C@H]1OC(C)=O | 7.97
NS(=O)(=O)c1ccc(CNC(=S)N[C@@H]2O[C@H](CO)[C@@H](O[C@@H]3O[C@H](CO)[C@H](O)[C@H](O)[C@H]3O)[C@H](O)[C@H]2O)cc1 | 7.36
CC(=O)OC[C@H]1O[C@@H](NC(=S)NNC(=O)c2ccc(S(N)(=O)=O)cc2)[C@H](OC(C)=O)[C@@H](OC(C)=O)[C@@H]1O[C@H]1O[C@H](COC(C)=O)[C@@H](OC(C)=O)[C@H](OC(C)=O)[C@H]1OC(C)=O | 7.98
O=S(=O)(NC1CCCCC1)NC1CCCCC1 | 5.00
CCCC(CCC)CN(C(=O)OC(C)(C)C)S(=O)(=O)NCCC(=O)OC | 5.09
COC(=O)CCNS(=O)(=O)Oc1ccccc1O | 5.07
NS(=O)(=O)c1ccc(S(=O)(=O)Nc2cccc3c(Cl)c[nH]c23)cc1 | 6.98
O=C(O)c1ccc(O)cc1 | 5.21

Value wanted: pKi (Carbonic anhydrase 14 (Homo sapiens)) of entry `Nc1cccc(S(N)(=O)=O)c1`
5.32

----------
Compiled notes: published log10(Ki) values involving UniProtKB Q9ULX7.
Hi team, quick reminder: these entries are log10 of Ki (nM).

Recorded log10(Ki), per entry:
smiles repr | log10(Ki)
NS(=O)(=O)c1ccc(NC(=S)N[C@@H]2O[C@H](CO)[C@H](O)[C@H](O)[C@H]2O)cc1 | 2.10
CCCCC(=O)OC[C@H]1O[C@@H](n2cc(-c3ccc(S(N)(=O)=O)cc3)nn2)[C@H](OC(=O)CCCC)[C@@H](OC(=O)CCCC)[C@H]1OC(=O)CCCC | 1.83
CC(=O)OC[C@H]1O[C@@H](NC(=S)NCc2ccc(S(N)(=O)=O)cc2)[C@H](OC(C)=O)[C@@H](OC(C)=O)[C@H]1OC(C)=O | 2.91
CC(=O)OC[C@H]1O[C@@H](NC(=S)NCCc2ccc(S(N)(=O)=O)cc2)[C@H](OC(C)=O)[C@@H](OC(C)=O)[C@@H]1O[C@H]1O[C@H](COC(C)=O)[C@@H](OC(C)=O)[C@H](OC(C)=O)[C@H]1OC(C)=O | 0.94
CCC(=O)OC[C@H]1O[C@@H](n2cc(-c3ccc(S(N)(=O)=O)cc3)nn2)[C@H](OC(=O)CC)[C@@H](OC(=O)CC)[C@H]1OC(=O)CC | 1.04

Provide the documented log10(Ki) with UniProtKB Q9ULX7 as the system for `NC(N)=Nc1nc(CSCCC(N)=NS(N)(=O)=O)cs1`
2.83

Give the reported log10(Ki) for `O=S(=O)(NC1CC1)NC1CC1` (system: UniProtKB Q9ULX7).
3.94

Look up log10(Ki) with UniProtKB Q9ULX7 for this compound: `NS(=O)(=O)c1ccc(CCNC(=S)N[C@@H]2O[C@H](CO)[C@@H](O)[C@H](O)[C@H]2O)cc1`
0.90

What value of log10(Ki) on UniProtKB Q9ULX7 does `O=C(O)c1c(O)cccc1O` have?
3.81

// lookup log10(Ki) | system=UniProtKB Q9ULX7 | key= `NS(=O)(=O)c1ccc(CCNC(=S)N[C@@H]2O[C@H](CO)[C@H](O)[C@H](O)[C@H]2O)cc1`
2.03

# value lookup — system UniProtKB Q9ULX7, readout log10(Ki), item `Nc1ccc(S(=O)(=O)Nc2nnc(S(N)(=O)=O)s2)cc1`
1.11

Form: Entry = `O=C1C=CC[C@H](C[C@@H](O)CCc2ccc(O)cc2)O1` | System = UniProtKB Q9ULX7 | log10(Ki) = ____
3.97

API: value(readout=log10(Ki), system=UniProtKB Q9ULX7) for record `NCCNCCNCCN`
4.08
